- assay.method.text: chemical genetic growth profiling, strain panel (AID 1159580);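 also: tested at 20 µM; growth read once vehicle control cultures reached saturation at 30 °C; 1 = growth at the plate median or of vehicle wells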
- measurement.context: S. cerevisiae deletion strains, growth OD, locus YDR502C, strain sam2
Out of some 5,500 compounds screened, about 2,000 (36%) were called active. About 18% were inconclusive and are not listed. Rule as the data show it: active = normalized growth mostly below about 0.91 (no sharp cut-off); inconclusive = no clear call, values can overlap the other calls; inactive = mostly above about 0.92. The list shows a part of the results.
Classes used: active, inactive

compound | category.label
CC1(C)CC[C@]2(C(=O)O)CC[C@]3(C)C(=CCC4[C@@]5(C)CC[C@@H](O)C(C)(C)C5CC[C@]43C)C2C1 (stereo not given in full) | inactive
COC(=O)C[C@H]1C(C)(C)C2(O)OC34CC2C(=O)[C@]1(C)C3CC[C@]1(C)C4=CC(=O)O[C@H]1c1ccoc1 (stereo not given in full) | inactive
CCOP(=S)(OCC)Oc1nc(Cl)c(Cl)cc1Cl | inactive
COc1ccc2c(c1)c(CC(=O)O)c(C)n2C(=O)c1ccc(Cl)cc1 | inactive
CNC(=O)O/N=C\C(C)(C)SC | inactive
CCC(C)C(=O)O[C@H]1[C@H](O)C2C(CN3CC(C)CCC3[C@@]2(C)O)C2C[C@]34O[C@]5(O)C(OC(=O)C(C)(O)CC)CC[C@@]3(C)C5C(OC(C)=O)[C@@H](OC(C)=O)C4[C@@]21O (stereo not given in full) | inactive
Nc1ccc(S(=O)(=O)Nc2ccnn2-c2ccccc2)cc1 | inactive
CC(C)=CCCC1(C)C=Cc2c(O)c3c(c(CC=C(C)C)c2O1)OC12C(=CCCC1C(C)(C)O[C@@]2(C/C=C(\C)C(=O)O)C(=O)O)C3=O (stereo not given in full) | active
CCOP(=S)(OCC)Oc1cc(C)nc(C(C)C)n1 | inactive
CC1(C)CC[C@]2(C)CC[C@]3(C)C(=CCC4[C@@]5(C)CC[C@H](O)C(C)(C)C5CC[C@]43C)C2C1 (stereo not given in full) | inactive

###

Quick list: normalized growth per entry.
- assay.method.text: chemical genetic growth profiling, strain panel (AID 1159580)
- measurement.context: S. cerevisiae deletion strains, growth OD, locus YLL041C, strain sdh2, stronger effect = lower value
In all, about 5,500 compounds went through this assay and about 2,000 (36%) were called active. Roughly 18% stayed inconclusive and do not appear here. The list shows a part of the results. Where a SMILES comes first, the peptide text is derived from it. Bridges are numbered along the chain shown (N, C = ends). [ ]: non-standard residue; d: D form. The star is where a group is joined. ξ: configuration not given here. ξDab(CH2SO3H) = NC(CCNCS(=O)(=O)O)C(=O)O; Heptanoyl(6-Me) = CC(C)CCCCC(=O)*; Dab = NCC[CH](N)C(=O)O
reported.property: normalized growth

compound | measured.result
NCCC(=O)N[C@@H](Cc1cnc[nH]1)C(=O)O | 1.01
C[C@]12CCC(=O)C=C1CCC1C2[C@@H](O)C[C@@]2(C)C1CC[C@]2(O)C(=O)CO (some centres undefined) | 0.99
C#C[C@]1(OC(C)=O)CCC2C3CCC4=C/C(=N\O)CCC4C3CC[C@@]21CC (some centres undefined) | 0.775
NC(Cc1c[nH]c2ccccc12)C(=O)O (centres undefined) | 1.01
C#C[C@]1(O)CCC2C3CCC4=CC(=O)CC[C@@H]4C3CC[C@@]21C (some centres undefined) | 0.974
COC1=C[C@@H]2[C@@H]3Cc4ccc(OC)c(O)c4[C@]2(CCN3C)CC1=O | 1
C#C[C@]1(O)CCC2C3CCC4=C(CCC(=O)C4)C3CC[C@@]21C (some centres undefined) | 0.977
CCC(C)C1NC(=O)C(CCNCS(=O)(=O)O)NC(=O)C(NC(=O)C(CCNCS(=O)(=O)O)NC(=O)C(NC(=O)C(CCNCS(=O)(=O)O)NC(=O)CCCCC(C)C)C(C)O)CCNC(=O)C(C(C)O)NC(=O)C(CCNCS(=O)(=O)O)NC(=O)C(CCNCS(=O)(=O)O)NC(=O)C(C(C)CC)NC1=O (centres undefined) ({Heptanoyl(6-Me)}-[ξDab(CH2SO3H)]T[ξDab(CH2SO3H)][Dab][ξDab(CH2SO3H)]II[ξDab(CH2SO3H)][ξDab(CH2SO3H)]T; lactam 4-C; configuration not given here) | 0.993
Nc1ccc(S(=O)(=O)Nc2ccnn2-c2ccccc2)cc1 | 0.986

###

- assay.method.text: chemical genetic growth profiling, strain panel (AID 1159580);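 also: tested at 20 µM; growth read once vehicle control cultures reached saturation at 30 °C; 1 = growth at the plate median or of vehicle wells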
- measurement.context: S. cerevisiae deletion strains, growth OD, locus YAL026C, strain drs2
Among all 5,500 compounds or so, about 2,000 (36%) were called active. Another 18% or so got no clear call; they are omitted. Cut-off read from the data, not from the text of the source: active = normalized growth mostly below about 0.91 (no sharp cut-off); inconclusive = no clear call, values can overlap the other calls; inactive = mostly above about 0.92. The list shows a part of the results.
Classes used: 1 (active), 0 (inactive)

molecule | category.label
COC1=C[C@@H]2[C@@H]3Cc4ccc(OC)c(O)c4[C@]2(CCN3C)CC1=O | 0
COC(=O)Nc1nc2ccc(C(=O)c3ccccc3)cc2[nH]1 | 0
Nc1ccccc1C(=O)CC(N)C(=O)O (centres undefined) | 0
N#CC(O[C@@H]1O[C@H](CO[C@@H]2O[C@H](CO)[C@@H](O)[C@H](O)[C@H]2O)[C@@H](O)[C@H](O)[C@H]1O)c1ccccc1 (some centres undefined) | 0
NC(Cc1c[nH]c2ccccc12)C(=O)O (centres undefined) | 0
NCCC(=O)N[C@@H](Cc1cnc[nH]1)C(=O)O | 0
CC(=O)NCc1c(I)c(NC(C)=O)c(I)c(C(=O)O)c1I | 0
Cc1ccc(-c2cc(C(F)(F)F)nn2-c2ccc(S(N)(=O)=O)cc2)cc1 | 0
COc1cccc2c1C(=O)c1c(O)c3c(c(O)c1C2=O)C[C@@](O)(C(=O)CO)C[C@@H]3OC1C[C@H](N)[C@H](O)[C@H](C)O1 (some centres undefined) | 1
CC(C)(Oc1ccc(CCNC(=O)c2ccc(Cl)cc2)cc1)C(=O)O | 0
COC(=O)Nc1nc2ccc(Sc3ccccc3)cc2[nH]1 | 0
NC(N)=N/N=C/c1c(Cl)cccc1Cl | 0
CC1(C)CC[C@]2(C(=O)O)CC[C@]3(C)C(=CCC4[C@@]5(C)CC[C@@H](O)C(C)(C)C5CC[C@]43C)C2C1 (some centres undefined) | 0
O=C(Nc1ccc(C(=O)O)c(O)c1)c1ccccc1 | 0
COc1c(-c2coc3cc4c(cc3c2=O)CC(OC(C)=O)C(C)(C)O4)ccc2c1C=CC(C)(C)O2 (centres undefined) | 0
CCC(C)C(=O)O[C@H]1[C@H](O)C2C(CN3CC(C)CCC3[C@@]2(C)O)C2C[C@]34O[C@]5(O)C(OC(=O)C(C)(O)CC)CC[C@@]3(C)C5C(OC(C)=O)[C@@H](OC(C)=O)C4[C@@]21O (some centres undefined) | 0
O=c1ccc2ccc(O)cc2o1 | 0
COc1cccc2c1C(=O)c1c(O)c3c(c(O)c1C2=O)C[C@@](O)(C(C)=O)C[C@@H]3O[C@H]1C[C@H](N)[C@H](O)[C@H](C)O1 | 0
COC(=O)C[C@H]1C(C)(C)C(=O)[C@@H]2CC3C4=CC(=O)O[C@@H](c5ccoc5)[C@]4(C)CCC3[C@@]1(C)C2=O (some centres undefined) | 0

###

- assay.method.text: chemical genetic growth profiling, strain panel (AID 1159580);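 also: tested at 20 µM; growth read once vehicle control cultures reached saturation at 30 °C; 1 = growth at the plate median or of vehicle wells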
- measurement.context: S. cerevisiae deletion strains, growth OD, locus YEL037C, strain rad23, stronger effect = lower value
The campaign covered roughly 5,500 compounds. About 2,000 (36%) were called active. Roughly 18% stayed inconclusive and do not appear here. This is one part of the list.
Simple rule here: normalized growth less than 1 is Criterion met, otherwise Criterion not met.

compound | category.label
OC(CCN1CCCCC1)(c1ccccc1)C1CCCCC1 (centres undefined) | Criterion met
CC(=O)/C=C\[C@@H]1[C@@]2(C)CCCC(C)(C)C2CC[C@@]1(C)O (some centres undefined) | Criterion met
CC(CC(=O)C(O)C(C)(C)O)C1C(=O)CC2(C)C3=CCC4C(C)(C)C(OC5OCC(O)C(O)C5O)CCC45CC35C(O)CC12C (centres undefined) | Criterion not met
Cc1cc(-n2c(=O)[nH]c(=O)n(C)c2=O)ccc1Oc1ccc(SC(F)(F)F)cc1 | Criterion met

###

- assay.method.text: chemical genetic growth profiling, strain panel (AID 1159580);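 also: tested at 20 µM; growth read once vehicle control cultures reached saturation at 30 °C; 1 = growth at the plate median or of vehicle wells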
- measurement.context: S. cerevisiae deletion strains, growth OD, locus YDL101C, strain DUN1
About 2,000 (36%) of roughly 5,500 compounds were called active. About 18% were inconclusive and are not listed. Rule as the data show it: active = normalized growth mostly below about 0.91 (no sharp cut-off); inconclusive = no clear call, values can overlap the other calls; inactive = mostly above about 0.92. This is one part of the list.
Classes used: Yes for active, No for inactive

compound | category.label
CC(=O)Nc1ccc(OCC(O)CNC(C)C)cc1 (configuration not stated) | No
O=C1ON=C(c2ccccc2)/C1=C/c1ccc(Cl)cc1 | Yes
O=C(O)/C=C1\CCCc2ccccc2C1O (configuration not stated) | No
O=C(NCC1COc2ccccc2O1)c1ccc(Cl)cc1 (configuration not stated) | No
COc1ccc(Oc2cc(C)nc3ccccc23)cc1 | No
COc1ccc2c3c([nH]c2c1)C(C)=NCC3 | No
COc1ccc(C(=O)CN2CCN(c3cc(C)nc4ccccc34)CC2)cc1 | No
CC(C)=CCCC1(C)C=Cc2c(O)c3c(c(CC=C(C)C)c2O1)OC12C(=CC4CC1C(C)(C)OC2(C/C=C(\C)C(N)=O)C4=O)C3=O (configuration not stated) | No
Nc1c2c(nc3ccccc13)CCCC2O (configuration not stated) | No
CC(C)Cc1ccc(C(C)C(=O)Nc2nn(C)c3ccccc23)cc1 (configuration not stated) | No
NNc1nncc2ccccc12 | No
OC1CCN(c2cc(C(F)(F)F)nc3cc(Cl)cc(Cl)c23)CC1 | No
